# assay info: osmotic lysis modulators in infected erythrocytes, primary screen, PSAC antagonist project, cell-based, P. falciparum Indochina, OD700, 3 h (AID 1156)
# test settings: higher = more signal, called active from +8 up or from −8 down
endpoint name: z-score

1) COc1ccc(COC(=O)NN=C2C[C@@H](O)[C@@H](O)[C@@H]3[C@@H]4C(=O)N(Cc5ccc6c(c5)OCO6)C(=O)[C@@H]4CC[C@H]23)cc1	0.18
2) O=C(NCCC[N+]1=CC=NC1c1ccccc1)N1CCCc2nc(-c3ccc(Br)cc3)ccc21 (stereo not drawn)	1.5
3) CON=C1c2cc(OC)ccc2O[C@H](c2cccc(OC)c2)[C@H]1O	-0.241
4) COC(=O)[C@H](C)NC(=O)CCC1CC(OC(=O)NCc2cccc3ccccc23)CC2(CCCC(COC(=O)NCCc3ccccc3OC)O2)O1 (stereo partly drawn)	-0.148
5) O=C1[C@H]2[C@H]3[C@H](O)[C@H](O)CC(=NOC[C@@H](O)COCc4ccco4)[C@@H]3CC[C@H]2C(=O)N1C1CCCCC1	0.347
6) CCc1cc2c(nc1CC)CCN(CCC(C)=NOCC[C@@H]1C=C[C@H](OC(C)=O)[C@@H](COC(C)=O)O1)C2	0.77
7) CCOC(=O)[C@H](CC(C)C)NC(=O)CCC1CC(OC(=O)NCc2ccc3c(c2)OCO3)CC2(CCCC(COC(=O)NCCOC)O2)O1 (stereo partly drawn)	-0.535
8) O=C1[C@H]2[C@H]3[C@H](O)[C@H](O)CC(=NOCc4ccccc4)[C@H]3CC[C@H]2C(=O)N1C1CCCCC1	0.43
